SYSTEM_TESTED: Histamine H2 receptor (Homo sapiens); also: assay procedure not described here
Sequence (P25021 whole entry): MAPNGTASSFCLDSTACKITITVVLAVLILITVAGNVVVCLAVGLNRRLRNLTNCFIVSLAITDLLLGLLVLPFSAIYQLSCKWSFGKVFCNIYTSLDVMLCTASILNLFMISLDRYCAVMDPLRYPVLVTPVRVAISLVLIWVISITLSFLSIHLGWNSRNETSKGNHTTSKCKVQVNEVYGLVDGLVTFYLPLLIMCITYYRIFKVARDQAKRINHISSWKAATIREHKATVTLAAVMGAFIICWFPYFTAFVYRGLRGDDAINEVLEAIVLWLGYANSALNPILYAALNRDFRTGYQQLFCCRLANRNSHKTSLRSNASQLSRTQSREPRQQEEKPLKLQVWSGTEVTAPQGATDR
Format: functional, cell-based
Parameter: AC50. Scope: all listed entries.

molecule=COc1ccc(Cc2nccc3cc(OC)c(OC)cc23)cc1OC system_tested="Histamine H2 receptor (Homo sapiens)" test_result="> 30 µM"

Given item `CCCN(CCC)CCc1cccc2c1CC(=O)N2` , the value recorded as its AC50 is > 10 µM

Given item COc1c(O[C@@H]2O[C@H](CO)[C@@H](O)[C@H](O)[C@H]2O)cc2c(c1OC)-c1ccc(SC)c(=O)cc1[C@@H](NC(C)=O)CC2 [THIOCOLCHICOSIDE] , the value recorded as its AC50 is > 30 µM

Given item `O=C1NC(=O)C(c2ccccc2)(c2ccccc2)N1` , the value recorded as its AC50 is > 10 µM

###

SYSTEM_TESTED: Muscarinic acetylcholine receptor M1 (Homo sapiens, UniProt P11229); also: assay procedure not described here
Sequence (P11229 whole entry): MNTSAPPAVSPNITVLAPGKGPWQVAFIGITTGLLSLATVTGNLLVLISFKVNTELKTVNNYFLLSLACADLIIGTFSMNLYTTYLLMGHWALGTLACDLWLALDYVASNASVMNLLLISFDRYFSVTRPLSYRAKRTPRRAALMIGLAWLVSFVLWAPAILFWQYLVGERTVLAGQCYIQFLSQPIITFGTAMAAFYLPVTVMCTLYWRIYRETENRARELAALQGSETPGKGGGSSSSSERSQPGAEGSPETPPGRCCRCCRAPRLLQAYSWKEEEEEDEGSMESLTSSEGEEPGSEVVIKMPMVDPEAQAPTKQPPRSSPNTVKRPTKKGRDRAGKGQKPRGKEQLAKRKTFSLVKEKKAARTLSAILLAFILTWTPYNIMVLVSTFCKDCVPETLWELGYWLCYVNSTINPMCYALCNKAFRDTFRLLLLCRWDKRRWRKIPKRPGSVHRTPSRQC
Format: functional
MEASURED_ENDPOINT: AC50

compound="NS(=O)(=O)c1cc2c(cc1C(F)(F)F)NC(Cc1ccccc1)NS2(=O)=O (centres undefined) [BENDROFLUMETHIAZIDE]" test_result="> 10 µM"
compound=[H]/N=C(\N/C(=N/[H])NCCCCCCNC(=N)NC(=N)Nc1ccc(Cl)cc1)Nc1ccc(Cl)cc1 test_result="> 10 µM"
compound=C[C@]1(COc2ccc(N3CCC(Oc4ccc(OC(F)(F)F)cc4)CC3)cc2)Cn2cc([N+](=O)[O-])nc2O1 test_result="> 10 µM"
compound=CCCC[C@H](C)C[C@H](O)/C=C/[C@H]1[C@H](O)CC(=O)[C@@H]1CCCC/C=C/C(=O)O test_result="> 30 µM"
compound="CC(C)OC(=O)C(C(=O)OC(C)C)=C1SC=CS1 [MALOTILATE]" test_result="> 30 µM"
compound="Clc1ccc(C(Cn2ccnc2)OCc2ccc(Sc3ccccc3)cc2)c(Cl)c1 (centres undefined)" test_result="> 30 µM"

Given item `O=C1CN=C(c2ccccc2)c2cc(Cl)ccc2N1` , the value recorded as its AC50 is > 10 µM

Given item `Cc1ccc(=O)n(-c2ccccc2)c1` , the value recorded as its AC50 is > 30 µM

Given item N=C(N)NCCCCCCC(=O)NC(O)C(=O)NCCCCNCCCN (centres undefined) , the value recorded as its AC50 is > 30 µM

###

SYSTEM_TESTED: Acetylcholinesterase (Homo sapiens, UniProt P22303); also: assay procedure not described here
Sequence (P22303 whole entry): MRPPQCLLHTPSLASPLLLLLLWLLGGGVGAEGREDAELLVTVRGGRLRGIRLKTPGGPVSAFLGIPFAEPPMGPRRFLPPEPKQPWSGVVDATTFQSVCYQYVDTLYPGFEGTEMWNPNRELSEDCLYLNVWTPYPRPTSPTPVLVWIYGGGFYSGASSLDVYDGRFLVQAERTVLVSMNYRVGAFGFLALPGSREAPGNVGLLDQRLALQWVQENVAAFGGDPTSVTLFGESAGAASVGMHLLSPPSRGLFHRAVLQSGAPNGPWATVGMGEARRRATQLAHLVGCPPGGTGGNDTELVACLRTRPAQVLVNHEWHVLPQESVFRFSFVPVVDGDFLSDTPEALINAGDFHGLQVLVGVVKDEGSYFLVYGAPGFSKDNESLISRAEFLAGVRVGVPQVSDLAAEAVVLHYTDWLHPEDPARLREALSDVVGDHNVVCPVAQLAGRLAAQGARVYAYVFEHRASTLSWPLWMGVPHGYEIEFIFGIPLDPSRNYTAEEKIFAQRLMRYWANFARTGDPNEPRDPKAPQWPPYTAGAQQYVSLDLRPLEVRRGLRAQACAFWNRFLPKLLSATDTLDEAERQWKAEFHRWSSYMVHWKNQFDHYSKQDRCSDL
Assay type: functional
MEASURED_ENDPOINT: AC50

Consider the following illustrative entries.
compound=CCCN(CCC)CCc1cccc2c1CC(=O)N2 measured_endpoint=AC50 test_result="> 30 µM"
compound=CCCN(CCc1cccs1)[C@H]1CCc2c(O)cccc2C1 measured_endpoint=AC50 test_result="26 µM"
compound=O=C1NC(=O)C(c2ccccc2)(c2ccccc2)N1 measured_endpoint=AC50 test_result="> 30 µM"
compound=CC[C@H]1OC(=O)[C@H](C)[C@@H](O[C@H]2C[C@@](C)(OC)[C@@H](O)[C@H](C)O2)[C@H](C)[C@@H](O[C@@H]2O[C@H](C)C[C@H](N(C)C)[C@H]2O)[C@](C)(O)C[C@@H](C)/C(=N\OCOCCOC)[C@H](C)[C@@H](O)[C@]1(C)O measured_endpoint=AC50 test_result="> 30 µM"
compound=CC(=N)N1CC[C@H](SC2=C(C(=O)O)N3C(=O)[C@H]([C@@H](C)O)[C@H]3C2)C1 measured_endpoint=AC50 test_result="> 300 µM"
compound=CC(=O)S[C@@H]1CC2=CC(=O)CC[C@]2(C)[C@H]2CC[C@@]3(C)[C@@H](CC[C@@]34CCC(=O)O4)[C@H]12 measured_endpoint=AC50 test_result="> 30 µM"

Switching to the query record.
Given item `C#Cc1cccc(Nc2ncnc3cc(OCCOC)c(OCCOC)cc23)c1` , the value recorded as its AC50 is > 30 µM
